B1: GAGE1 (parent)
chain: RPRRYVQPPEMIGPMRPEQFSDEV

- Variants of: B1
- PROCEDURE SUMMARY: protein stability index of a GFP-peptide fusion (GPS, HEK-293T) (PSI 1-6); higher = more stable;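 further: lentivirally expressed fusions sorted by FACS into six bins by GFP to DsRed ratio, PSI derived from sequencing read proportions per bin multiplied by bin number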
- CONDITION PARAMETERS: c terminus: a fixed tail appended
Class Criterion met: protein stability index at least 4. Class Criterion not met: protein stability index below 4.

In [3]: df
Out[3]:
   mutation_name       answer_label
0           M11V  Criterion not met
1            R1W  Criterion not met
2           M15C      Criterion met
3           I12P      Criterion met
4            P2V  Criterion not met
5            Q7R  Criterion not met
6           E23R  Criterion not met
7            P8N      Criterion met
8           V24E      Criterion met
